# reported ncRNA array expression, patient 27; entries follow
Tested on: ncRNAs (SEQ ID NO 28-89)
Assay: ncRNA arrays of melanocytes, keratinocytes, normal skin, melanoma cell lines and patient samples
Parameters: species or system human
Details: melanoma patient 27 sample compared to normal skin
Respond using a number only.

Consider the worked cases shown below.
SUBSTANCE	ncRNA array expression, patient 27
SEQ ID NO 60 (ACTAACAGCACTGGAGGGTGTAGTGTTTCCTACTTTATGGATGAGTGTACTGTGGGCTTC; listed as DNA, chemistry not given here; listed as Homo sapiens)	1.485
SEQ ID NO 79 (GTGTGTACTGATGTCAAAGACCAAATGGATGCCCCTGTGGCCAACAGTACCTTGTTAAAC; listed as DNA, chemistry not given here; listed as Homo sapiens)	0.9237
SEQ ID NO 62 (AATCGTTAATATCATTGATATTAAGTAATTTCCCCACTCTGAGTGAATACTTTGATGATG; listed as DNA, chemistry not given here; listed as Homo sapiens)	1.855

Recorded ncRNA array expression, patient 27 for SEQ ID NO 37 (ACGCACTGGGCGTTGAAGCAGTGCTTTCTGGATTAAATACGAAATACTGATGTCACAAGC; DNA, backbone and methylation of C not given here; listed as Homo sapiens) on ncRNAs (SEQ ID NO 28-89) was 0.5554

Recorded ncRNA array expression, patient 27 for SEQ ID NO 88 (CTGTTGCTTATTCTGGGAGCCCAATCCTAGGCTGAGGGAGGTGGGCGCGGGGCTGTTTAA; listed as DNA, chemistry not given here; listed as Homo sapiens) on ncRNAs (SEQ ID NO 28-89) was −2.173

Recorded ncRNA array expression, patient 27 for SEQ ID NO 59 (TGTGCAGCAGTATCAAAGGTCCTTAAATTCTCAACAATGAAGGAAAAACAAAAACCCATT; listed as DNA, chemistry not given here; listed as Homo sapiens) on ncRNAs (SEQ ID NO 28-89) was −1.161

Recorded ncRNA array expression, patient 27 for SEQ ID NO 68 (CAAAAAGAAATCTTGTTTACTTGTAAAAATATAGACTACCTCCTACTTGCCACCGTTAAG; listed as DNA, chemistry not given here; listed as Homo sapiens) on ncRNAs (SEQ ID NO 28-89) was −1.5151

Recorded ncRNA array expression, patient 27 for SEQ ID NO 85 (TGAGGGGAGAGGGGATGGGAAACATTAGGGCTGGGTTCATGTAAAGGGACCAGCATTGTG; listed as DNA, chemistry not given here; listed as Homo sapiens) on ncRNAs (SEQ ID NO 28-89) was −3.328

Recorded ncRNA array expression, patient 27 for SEQ ID NO 31 (TTGCTTTTGTATTTGTAATTTTATGACATTTCGAAGTTTCTGTGTCTTAACTCTTTTTAA; listed as DNA, chemistry not given here; listed as Homo sapiens) on ncRNAs (SEQ ID NO 28-89) was 2.156

Recorded ncRNA array expression, patient 27 for SEQ ID NO 71 (AAAATTCCAAGAGGGCCTTTTCGAATAGACGCATGAACGGTGTTTGTGTCTGGATCGTCC; listed as DNA, chemistry not given here; listed as Homo sapiens) on ncRNAs (SEQ ID NO 28-89) was 1.849
